Sourced from patent US20250340662A1

# studySystem: T1, Rabbit v6-peptide (rabbit)
# T1 construct: domain: v6-region (43 amino acids); also called Rb v6-peptide; rb v6-peptide
# assayExplanation: SPR SCK, antibody immobilised, peptide injected
measuredParameter: koff
Answer with the figure and its unit, nothing else.

Field request: koff | item: AL-MN114-132 IgG1 LALA (antibody, V domains shown, item 20 iii) gives heavy 77 / light 96 without naming the format) VH: EVQLLESGGGLVQPGGSLRLSCAASGFTFSSYAMSWVRQAPGKGLEWVSAISGGGSSTYYADSVKGRFTISRDNSKNTLYLQMNSLRAEDTAVYYCARHYYSDSDYRSSAAMDYWGQGTLVTVSS VL: DIQMTQSPSSLSASVGDRVTITCRASQSISSYLNWYQQKPGKAPKLLIYAASSLQSGVPSRFSGSGSGTDFTLTISSLQPEDFATYYCQQDLYLLTFGQGTKLEIK 0.023 s⁻¹
